- test.details: Pharmacokinetics in rats after SC and IV administration
- test.parameters: rat, in vivo, iv, 0.1 mg/kg, rats, IV 0.1 mg/kg, PK linearity study; read-out: AUC(0-24)
Where a SMILES comes first, the peptide text is derived from it. [ ]: non-standard residue; d: D form. Arg(Me) = CNC(=N)NCCC[C@H](N)C(=O)O; Hyp = O=C(O)[C@@H]1C[C@@H](O)CN1; azaGly = NNC(=O)O
quantity.name: AUC(0-t) (ng·h/mL)
The reply should contain only the number, in ng·h/mL.

// field: AUC(0-t); key: CC(=O)O.CNC(=N)NCCC[C@H](NC(=O)[C@H](CC(C)C)NC(=O)NNC(=O)[C@H](Cc1ccccc1)NC(=O)[C@@H](NC(=O)[C@H](CC(N)=O)NC(=O)[C@@H]1C[C@@H](O)CN1C(=O)[C@@H](Cc1ccc(O)cc1)NC(C)=O)[C@@H](C)O)C(=O)N[C@@H](Cc1c[nH]c2ccccc12)C(N)=O [API-MA] (Ac-[dY][Hyp]NTF[azaGly]L[Arg(Me)]W-NH2) ; value = 140

Where these numbers come from: patent US11013780B2
